Reported EC50, FRET short substrate assay values are given for each entry in this list.
target: BACE1 ECD (as used in the enzyme activity assay) (UniProt P56817 22-457, limits assumed); assay: cell-based or functional assay
Sequence (P56817 22-457 limits assumed): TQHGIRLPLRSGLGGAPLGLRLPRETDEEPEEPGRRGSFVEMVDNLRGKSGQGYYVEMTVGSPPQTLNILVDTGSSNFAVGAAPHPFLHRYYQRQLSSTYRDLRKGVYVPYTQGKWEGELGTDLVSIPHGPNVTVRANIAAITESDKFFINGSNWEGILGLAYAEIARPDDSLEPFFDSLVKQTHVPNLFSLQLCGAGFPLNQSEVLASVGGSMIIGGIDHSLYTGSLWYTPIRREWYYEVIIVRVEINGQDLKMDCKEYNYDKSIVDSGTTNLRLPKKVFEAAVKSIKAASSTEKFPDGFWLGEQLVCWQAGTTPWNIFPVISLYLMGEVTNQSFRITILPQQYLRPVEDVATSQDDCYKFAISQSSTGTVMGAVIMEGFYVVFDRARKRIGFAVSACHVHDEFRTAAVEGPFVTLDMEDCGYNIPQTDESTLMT
measurement_name: EC50, FRET short substrate assay

INSERT INTO results (binder, data_value) VALUES
  ('5543 (antibody, V domains shown) VH: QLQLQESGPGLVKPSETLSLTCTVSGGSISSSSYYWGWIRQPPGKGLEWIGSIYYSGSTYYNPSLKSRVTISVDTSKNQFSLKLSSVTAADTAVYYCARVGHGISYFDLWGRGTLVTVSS VL: EIVLTQSPATLSLSPGERATLSCRASQSVSSYLAWYQQKPGQAPRLLIYDASNRATGIPARFSGSGSGTDFTLTISSLEPEDFAVYYCQQAYVWPPRTFGGGTKVEIK', '9.11 nM'),
  ('5643 (antibody, V domains shown) VH: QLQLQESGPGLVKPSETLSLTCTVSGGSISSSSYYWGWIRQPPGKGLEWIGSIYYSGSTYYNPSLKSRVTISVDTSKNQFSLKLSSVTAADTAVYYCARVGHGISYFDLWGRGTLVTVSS VL: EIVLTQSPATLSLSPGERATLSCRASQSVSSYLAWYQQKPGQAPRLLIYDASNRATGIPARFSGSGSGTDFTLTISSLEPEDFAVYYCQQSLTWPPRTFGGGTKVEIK', '1.41 nM'),
  ('5876 (antibody, V domains shown) VH: EVQLLESGGGLVQPGGSLRLSCAASGFTFSSRAMGWVRQAPGKGLEWVSATSGSGGSIYYADSVKGRFTISRDNSKNTLYLQMNSLRAEDTAVYYCAKGGSQWLYAPGSWFDPWGQGTLVTVSS VL: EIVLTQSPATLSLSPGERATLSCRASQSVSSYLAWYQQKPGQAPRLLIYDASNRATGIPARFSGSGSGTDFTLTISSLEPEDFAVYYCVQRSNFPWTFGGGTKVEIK', '0.703 nM');
